Test system: SF-539 CNS
Assay: NCI-60 one-dose screen, 48 h (100 = growth as untreated, 0 = no growth, -100 = all killed)
Settings: 10 µM unless noted
Compounds without any hit were thinned out: in the full panel of roughly 83,000, 20% have a hit.
// values below are reported growth

{"columns": ["Item Smiles", "Measured Target", "growth [%]"],
 "data": [
  ["N/C(=N\\C(N)=N\\c1nc2ccccc2s1)c1ccc(C(F)(F)F)cc1", "SF-539 CNS", 98.7],
  ["COc1ccc(-c2nc3cc(Cl)c(Cl)cc3n2CC(=O)N=Nc2c(O)[nH]c3ccc(OC)cc23)cc1", "SF-539 CNS", 47.2],
  ["COc1cc(Cn2cc3c(c2)-c2onc(CN4CCOCC4)c2CC3)cc(OC)c1OC", "SF-539 CNS", 99.2]
]}
